experiment: Toxicity liver stage against HepG2, at 10uM; format: cell-based; design: test concentration 10 uM, cell line HepG2-A16-CD81EGFP; settings: human, HepG2-A16-CD81EGFP cells; read-out: INHIBITION
Each entry below lists one item and its recorded cytotoxicity at 10 µM value.
experimental_readout: cytotoxicity at 10 µM (%)

[[record]]
compound = "Cc1oncc1C(=O)N1CCC2(CC1)CC(N1CCOCC1)C2"
unit_descriptor = "%"
observed_measurement = -2.69

[[record]]
compound = "Nc1nccnc1CC1CCCN(Cc2cccc3[nH]ccc23)C1 (stereo not given)"
unit_descriptor = "%"
observed_measurement = 0.994

[[record]]
compound = "O=C(Nc1cccc2c1CCCC2)c1cccc(CN2CC[C@H](O)C2)c1"
unit_descriptor = "%"
observed_measurement = -9.32

[[record]]
compound = "CCNC(=O)Cc1n[nH]c(-c2cncc(Br)c2)n1"
unit_descriptor = "%"
observed_measurement = 1.2

[[record]]
compound = "CCn1nc(C)c(NC(=O)C(C)C)c1C"
unit_descriptor = "%"
observed_measurement = 1.73

[[record]]
compound = "Cc1cc(NCC2(O)CCOCC2)c2ccccc2n1"
unit_descriptor = "%"
observed_measurement = -13.3

[[record]]
compound = "Cn1ccnc1CN1CCCN(C(=O)c2ccc3ccccc3c2)CC1"
unit_descriptor = "%"
observed_measurement = -8.66

[[record]]
compound = "CC(C)c1cc(C(=O)N2CCN(CC3CC3)[C@@H]3CS(=O)(=O)C[C@@H]32)no1"
unit_descriptor = "%"
observed_measurement = -2.19

[[record]]
compound = "COCCCN(Cc1ccccn1)S(=O)(=O)c1ccc(OC)cc1"
unit_descriptor = "%"
observed_measurement = 5.85

[[record]]
compound = "COC(=O)C(c1cc(F)ccc1F)N(C)C(=O)c1cnccn1 (stereo not given)"
unit_descriptor = "%"
observed_measurement = 6.43

[[record]]
compound = "Cc1nn(C)c2ncc(NC(=O)N(C)Cc3cc(Cl)cn3C)cc12"
unit_descriptor = "%"
observed_measurement = 2.73

[[record]]
compound = "CS(=O)(=O)Cc1ccc(C(=O)NC2CCc3nccn3C2)o1 (stereo not given)"
unit_descriptor = "%"
observed_measurement = -8.77

[[record]]
compound = "C1CCC(CSc2nnnn2C2CC2)OC1 (stereo not given)"
unit_descriptor = "%"
observed_measurement = 5.29

[[record]]
compound = "Cc1nsc(N2CCN(Cc3cccc(F)c3)CC2)n1"
unit_descriptor = "%"
observed_measurement = 2.74

[[record]]
compound = "O=C(O)c1cccc(C2CCCN(S(=O)(=O)N3CCOCC3)C2)c1 (stereo not given)"
unit_descriptor = "%"
observed_measurement = 9.45


* * *

test: Toxicity liver stage against HepG2, at 10uM; format: cell-based; design: test concentration 10 uM, cell line HepG2-A16-CD81EGFP; details: human, HepG2-A16-CD81EGFP cells; read-out: INHIBITION
experimental_readout: cytotoxicity at 10 µM (%)

[[record]]
compound = "COc1ccc(CNc2cc3[nH]c(O)nc3cc2C)cc1"
unit_descriptor = "%"
observed_measurement = 18.1

[[record]]
compound = "c1ccc(C2(CNCc3cnc(N4CCOCC4)nc3)CC2)cc1"
unit_descriptor = "%"
observed_measurement = -0.813

[[record]]
compound = "Cn1cc(CN2C[C@@H]3COC[C@]3(C(=O)NCc3ccccn3)C2)cn1"
unit_descriptor = "%"
observed_measurement = -1.07

[[record]]
compound = "O=C(c1cccc(NCCO)c1)N1CCOCC1"
unit_descriptor = "%"
observed_measurement = -11

[[record]]
compound = "Cc1cnn(CCNCC(O)COc2ccc(F)cc2)c1 (stereo not given)"
unit_descriptor = "%"
observed_measurement = -1.76


* * *

Parameter cytotoxicity at 10 µM: see the listing below.
test: Toxicity liver stage against HepG2, at 10uM; assay type: cell-based; design: test concentration 10 uM, cell line HepG2-A16-CD81EGFP; settings: human, HepG2-A16-CD81EGFP cells; read-out: INHIBITION
experimental_readout: cytotoxicity at 10 µM (%)

[[record]]
compound = "CC(C)Cc1ncc2c(n1)CN(C(=O)c1ccc(CN3CCCC3)o1)C2"
experimental_readout = "cytotoxicity at 10 µM"
unit_descriptor = "%"
observed_measurement = -1.66

[[record]]
compound = "CC(=O)N1CCC(N2C[C@@H](F)[C@@H](OCc3nc4ncccc4[nH]3)C2)CC1"
experimental_readout = "cytotoxicity at 10 µM"
unit_descriptor = "%"
observed_measurement = 6.1

[[record]]
compound = "CN(C)c1cccc(C2CCCN2CCCN2CCOC2=O)c1 (centres undefined)"
experimental_readout = "cytotoxicity at 10 µM"
unit_descriptor = "%"
observed_measurement = -10.2

[[record]]
compound = "COCCC(=O)NC(C)(C(N)=O)c1cccc(Cl)c1 (centres undefined)"
experimental_readout = "cytotoxicity at 10 µM"
unit_descriptor = "%"
observed_measurement = 17.7

